assay.text: recombinant barcode read abundance after kanamycin selection (control-corrected) (log10(CPM+1)); higher = more efficient recombination; sequences stand for … in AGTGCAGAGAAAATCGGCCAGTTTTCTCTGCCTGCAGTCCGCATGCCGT…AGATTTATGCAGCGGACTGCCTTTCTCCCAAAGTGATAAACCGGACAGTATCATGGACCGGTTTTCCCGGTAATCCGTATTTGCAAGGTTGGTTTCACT; site = the 11-nt target
quantity: recombinant barcode read abundance (log10)

Below are worked cases with known answers.
GCACACTCTTGGGTTCTAACCTGTTGCCT (site GCACGCTCTAG) : 0
TAGTAAGCTTGGGTTCTAACCTGTTGCCT (site TAGTAAGCTAG) : 1.23
GAAACGGCTTGGGTTCTAACCTGTTGCCT (site GAAATGGCTAG) : 0.323
AAGATACCTTGGGTTCTAACCTGTTGCCT (site AAGATACCTAG) : 2.23
TACGAGGCTTGGGTTCTAACCTGTTGCCT (site TACGCGGCTAG) : 0.0314
CTCTACACTTGGGTTCTAACCTGTTGCCA (site CTCTACACTTG) : 0.879
CCTAATCCTTGGGTTCTAACCTGTTGCGT (site CCTAACCCTAC) : 0.295
TTATCCGCTTGGGTTCTAACCTGTTGCCT (site TTATCCGCTAG) : 1.77

Problem: State the recorded recombinant barcode read abundance (log10) for this entry: GCGTCCACTTGGGTTCTAACCTGTTGCCT (site GCGTCCACTAG)
Solution: 0.0111

Problem: What does the record list as recombinant barcode read abundance (log10) for CTGGATCCTTGGGTTCTAACCTGTTGCCT (site CTCGACCCTAG) ?
Solution: 0.0729

Problem: Could you tell me which recombinant barcode read abundance (log10) is on file for CGAATGTCTTGGGTTCTAACCTGTTGCTG (site GGTATGTCTCA) ?
Solution: 0.202

* * *

assay.text: recombinant UMI read abundance after kanamycin selection (control-corrected) (log10(CPM+1)); higher = more efficient recombination; extreme values may be limits of the assay; sequences stand for … in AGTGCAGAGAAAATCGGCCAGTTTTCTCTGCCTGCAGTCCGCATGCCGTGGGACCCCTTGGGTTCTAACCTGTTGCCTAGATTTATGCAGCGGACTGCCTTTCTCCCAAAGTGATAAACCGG…AGGTTGGTTTCACT; site = the 11-nt donor
Please mark MET if the recorded recombinant UMI read abundance (log10) is equal to or greater than 0.2, and NOT MET if it falls below.

Previously resolved entries follow.
CCGTTTACATGGACCGGTTTTCCCGGTAATCCGTATTTGCC (site CCGTTTACTGG) : NOT MET
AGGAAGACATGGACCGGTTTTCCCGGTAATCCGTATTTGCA (site AGTAAGACTTG) : MET
TGCACCGCATGGACCGGTTTTCCCGGTAATCCGTATTTGCG (site TGCACCGCTCG) : NOT MET
CTACGTCCATGGACCGGTTTTCCCGGTAATCCGTATTTGAA (site CTACGTCCTTT) : MET
TTAGTTGCATGGACCGGTTTTCCCGGTAATCCGTATTTGTG (site TTAGCTGCTCA) : NOT MET
GGTACGTCATGGACCGGTTTTCCCGGTAATCCGTATTTGGT (site GGTACGTCTAA) : NOT MET

Problem: Record TAATTGACATGGACCGGTTTTCCCGGTAATCCGTATTTGCT (site TAGTTGACTAG) ; criterion: recombinant UMI read abundance (log10) no lower than 0.2. Met?
Solution: MET

Problem: Is recombinant UMI read abundance (log10) at least 0.2? Consider GGTTAAACATGGACCGGTTTTCCCGGTAATCCGTATTTGGT (site GGTTAAACTAC)
Solution: NOT MET

Problem: Does the sequence TCACCTGCATGGACCGGTTTTCCCGGTAATCCGTATTTGCG (site TCACCTGCTCG) have recorded recombinant UMI read abundance (log10) that is 0.2 or more?
Solution: NOT MET

* * *

assay.text: recombinant barcode read abundance after kanamycin selection (control-corrected) (log10(CPM+1)); higher = more efficient recombination; sequences stand for … in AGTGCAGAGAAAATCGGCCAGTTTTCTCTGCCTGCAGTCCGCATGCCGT…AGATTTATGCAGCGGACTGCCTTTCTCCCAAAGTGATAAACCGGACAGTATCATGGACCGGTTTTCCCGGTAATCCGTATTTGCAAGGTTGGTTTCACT; site = the 11-nt target
quantity: recombinant barcode read abundance (log10)
Output spec: single numeric token, no unit.

Example results:
TAAGGTCCTTGGGTTCTAACCTGTTGCTT (site AGGTCAACTCG) : 0.224
ACCCGTCCTTGGGTTCTAACCTGTTGCAG (site GGCCGTCCTCT) : 0.051
TACCATTCTTGGGTTCTAACCTGTTGCTT (site TACAGTTCTAA) : 0.0331
CCGATCCCTTGGGTTCTAACCTGTTGCCT (site CGGATCCCTAG) : 0.213
GGGCACTCTTGGGTTCTAACCTGTTGCGT (site GGGCACTCTAA) : 0.559
CTGCTGTCTTGGGTTCTAACCTGTTGCCA (site CTGATGTCTTG) : 0.154

Problem: Fill in: recombinant barcode read abundance (log10) of GGCACAACTTGGGTTCTAACCTGTTGCCT (site GGCACTACTAG) is ___
Solution: 0.0426

Problem: What does the data say about its recombinant barcode read abundance (log10)? Entry: GTGCCCGCTTGGGTTCTAACCTGTTGCAG (site GTGCCCGCTCT)
Solution: 0.961

Problem: Need recombinant barcode read abundance (log10) of CGAGCTCCTTGGGTTCTAACCTGTTGCCC (site GGAGCTCCTTG) , thanks.
Solution: 0.512

Problem: Which recombinant barcode read abundance (log10) value belongs to GTACGTCCTTGGGTTCTAACCTGTTGCTT (site GTACGTCCTAC) ?
Solution: 0.143

* * *

assay.text: recombinant UMI read abundance after kanamycin selection (control-corrected) (log10(CPM+1)); higher = more efficient recombination; extreme values may be limits of the assay; sequences stand for … in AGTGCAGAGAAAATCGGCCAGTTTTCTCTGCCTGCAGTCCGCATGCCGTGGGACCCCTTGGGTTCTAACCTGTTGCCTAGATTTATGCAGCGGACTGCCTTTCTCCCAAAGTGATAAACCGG…AGGTTGGTTTCACT; site = the 11-nt donor
Rule: recombinant UMI read abundance (log10) under 0.007 gives no (0), otherwise yes (1).

Field: example entries. Status: answers known.
CCCAATACATGGACCGGTTTTCCCGGTAATCCGTATTTGGC (site CCGAATACTGC) : no (0)
GTGTTCTCATGGACCGGTTTTCCCGGTAATCCGTATTTGAA (site GTGTTCTCTTT) : yes (1)
TAGAACACATGGACCGGTTTTCCCGGTAATCCGTATTTGCA (site TAGAACACTTG) : yes (1)
CTAGAATCATGGACCGGTTTTCCCGGTAATCCGTATTTGAC (site CTAGAATCTGT) : yes (1)
CGATCCCCATGGACCGGTTTTCCCGGTAATCCGTATTTGAA (site CGATCCCCTTT) : yes (1)

Problem: Say whether TCAGGGACATGGACCGGTTTTCCCGGTAATCCGTATTTGCG (site TCAGCGACTCG) shows recombinant UMI read abundance (log10) of 0.007 or more.
Solution: yes (1)

Problem: Quick check, recombinant UMI read abundance (log10) >= 0.007? CTTCGCTCATGGACCGGTTTTCCCGGTAATCCGTATTTGTA (site CTTCGCTCTTA)
Solution: yes (1)

Problem: Tell me whether recombinant UMI read abundance (log10) is at least 0.007 here: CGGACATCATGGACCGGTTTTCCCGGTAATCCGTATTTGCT (site CGGACAGCTAG)
Solution: no (0)

Problem: Does ATGAGGCCATGGACCGGTTTTCCCGGTAATCCGTATTTGAC (site ATAAGGCCTGT) have a reported recombinant UMI read abundance (log10) of at least 0.007?
Solution: no (0)

* * *

assay.text: recombinant UMI read abundance after kanamycin selection (control-corrected) (log10(CPM+1)); higher = more efficient recombination; extreme values may be limits of the assay; sequences stand for … in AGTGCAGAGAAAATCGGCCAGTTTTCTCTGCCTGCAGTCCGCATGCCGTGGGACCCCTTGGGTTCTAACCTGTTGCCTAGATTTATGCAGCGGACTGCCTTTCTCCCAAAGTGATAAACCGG…AGGTTGGTTTCACT; site = the 11-nt donor
Known recombinant UMI read abundance (log10) of a selection of sequences

TTGGCTGCATGGACCGGTTTTCCCGGTAATCCGTATTTGTG (site TTGGCTGCTCA) : 0.00853
GGTCCAGCATGGACCGGTTTTCCCGGTAATCCGTATTTGTA (site GGTCCACCTTA) : 0.00451
AGGTTGACATGGACCGGTTTTCCCGGTAATCCGTATTTGCG (site AGGTTGACTCG) : 2
TGTACCACATGGACCGGTTTTCCCGGTAATCCGTATTTGTA (site TGTACCACTTA) : 0.131

Problem: Would you kindly share the measured recombinant UMI read abundance (log10) for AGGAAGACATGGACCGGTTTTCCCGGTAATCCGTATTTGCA (site AGGATGACTTA) ?
Solution: 0.0119
